Test: Steady-state plasma pharmacokinetics
Type: in vivo, HIV-infected patients (human)
Conditions: human, plasma, oral, 50 mg
endpointLabel: AUC (ng·h/mL)
Report the figure in ng·h/mL without appending any unit label.

Which AUC is listed for CCSCc1ccc2c(c1)c1c3c(c4c5cc(CSCC)ccc5n5c4c1n2[C@H]1C[C@](O)(C(=O)OC)[C@]5(C)O1)CNC3=O ?
2630

* * *

Measured half-life by item
Assay: Steady-state plasma pharmacokinetics
Type: in vivo, HIV-infected patients (human)
Conditions: human, plasma, oral, 50 mg
Report the figure in h without appending any unit label.

Which half-life is listed for CC(C)c1nc(CN(C)C(=O)N[C@H](C(=O)N[C@@H](Cc2ccccc2)C[C@H](O)[C@H](Cc2ccccc2)NC(=O)OCc2cncs2)C(C)C)cs1 ?
5.8

Which half-life is listed for COC(=O)N[C@H](C(=O)N[C@@H](Cc1ccccc1)[C@@H](O)CN(Cc1ccc(-c2ccccn2)cc1)NC(=O)[C@@H](NC(=O)OC)C(C)(C)C)C(C)(C)C ?
15.9

Which half-life is listed for CCSCc1ccc2c(c1)c1c3c(c4c5cc(CSCC)ccc5n5c4c1n2[C@H]1C[C@](O)(C(=O)OC)[C@]5(C)O1)CNC3=O ?
35.2

* * *

Assay: Steady-state plasma pharmacokinetics
Assay type: in vivo, HIV-infected patients (human)
Conditions: human, plasma, oral, 50 mg
endpointLabel: Tmax (h)
Report the figure in h without appending any unit label.

- compound: "CCSCc1ccc2c(c1)c1c3c(c4c5cc(CSCC)ccc5n5c4c1n2[C@H]1C[C@](O)(C(=O)OC)[C@]5(C)O1)CNC3=O [CEP-1347]"
  measuredValue: 3

Consider the record given below.
Which Tmax is listed for COC(=O)N[C@H](C(=O)N[C@@H](Cc1ccccc1)[C@@H](O)CN(Cc1ccc(-c2ccccn2)cc1)NC(=O)[C@@H](NC(=O)OC)C(C)(C)C)C(C)(C)C [ATV, Atazanavir] ?
2

* * *

Assay: Steady-state plasma pharmacokinetics
Assay type: in vivo, HIV-infected patients (human)
Settings: human, plasma, oral, AUC0–24, Visit 2 (day 21), ATV/RTV 300/100 mg once daily with CEP-1347 50 mg twice daily; arithmetic mean (SD), n=19
endpointLabel: AUC(0-t) (ng·h/mL)
Report the figure in ng·h/mL without appending any unit label.

- sampleSmiles: "CC(C)c1nc(CN(C)C(=O)N[C@H](C(=O)N[C@@H](Cc2ccccc2)C[C@H](O)[C@H](Cc2ccccc2)NC(=O)OCc2cncs2)C(C)C)cs1"
  quantityUnit: "ng·h/mL"
  measuredValue: 13200

Which AUC(0-t) is listed for COC(=O)N[C@H](C(=O)N[C@@H](Cc1ccccc1)[C@@H](O)CN(Cc1ccc(-c2ccccn2)cc1)NC(=O)[C@@H](NC(=O)OC)C(C)(C)C)C(C)(C)C ?
49600

* * *

Measured Cmax by item
Assay: Steady-state plasma pharmacokinetics
Assay type: in vivo, HIV-infected patients (human)
Conditions: human, plasma, oral, 50 mg
Report the figure in ng/mL without appending any unit label.

- sampleSmiles: "CCSCc1ccc2c(c1)c1c3c(c4c5cc(CSCC)ccc5n5c4c1n2[C@H]1C[C@](O)(C(=O)OC)[C@]5(C)O1)CNC3=O"
  Cmax, ng/mL: 427

Consider the record given below.
Which Cmax is listed for COC(=O)N[C@H](C(=O)N[C@@H](Cc1ccccc1)[C@@H](O)CN(Cc1ccc(-c2ccccn2)cc1)NC(=O)[C@@H](NC(=O)OC)C(C)(C)C)C(C)(C)C ?
4500
